Hey, just so you know, these numbers are from ChEMBL document CHEMBL3808316.

# TARGET DESC: Kappa-type opioid receptor (Homo sapiens, UniProt P41145)
# Sequence (P41145 whole entry): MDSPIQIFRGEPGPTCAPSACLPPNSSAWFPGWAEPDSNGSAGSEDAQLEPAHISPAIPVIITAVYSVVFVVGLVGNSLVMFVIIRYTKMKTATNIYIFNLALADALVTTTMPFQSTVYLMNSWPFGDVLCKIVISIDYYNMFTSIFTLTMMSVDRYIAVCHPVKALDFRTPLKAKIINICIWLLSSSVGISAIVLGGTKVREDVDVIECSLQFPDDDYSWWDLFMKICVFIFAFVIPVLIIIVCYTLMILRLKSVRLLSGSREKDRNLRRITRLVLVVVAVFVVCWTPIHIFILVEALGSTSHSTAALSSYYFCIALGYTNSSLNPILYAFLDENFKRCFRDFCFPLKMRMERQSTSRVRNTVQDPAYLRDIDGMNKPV
# METHOD: Displacement of [3H]diprenorphine from human kappa opioid receptor expressed in CHO cell membranes at 10^-5 M after 30 mins by liquid scintillation counting analysis
Is inhibition at least 80%? Then TRUE. If not, FALSE.

> print(dat)
                                   compound  class.assignment
1  O=C1CC(C(=O)N2CCc3ccccc3C2C[N+]2(Cc3ccc(F)cc3)CCCC2)c2cc(Cl)ccc21 (centres undefined)             FALSE
2  O=C1CC(C(=O)N2CCc3ccccc3C2C[N+]2(Cc3ccc(Cl)cc3Cl)CCCC2)c2cc(Cl)ccc21 (centres undefined)             FALSE
3  COc1ccc(C[N+]2(CC3c4ccccc4CCN3C(=O)C3CC(=O)c4ccc(Cl)cc43)CCCC2)cc1 (centres undefined)              TRUE
4  O=C1CC(C(=O)N2CCc3ccccc3C2C[N+]2(Cc3ccc(Cl)cc3)CCCC2)c2cc(Cl)ccc21 (centres undefined)              TRUE
5  C=CC[N+]1(CC2c3ccccc3CCN2C(=O)C2CC(=O)c3ccc(Cl)cc32)CCCC1 (centres undefined)              TRUE
6  C[N+]1(CC2c3ccc(O)cc3CCN2C(=O)C2CC(=O)c3ccc(Cl)cc32)CCCC1 (centres undefined)              TRUE
7  CCCC[N+]1(CC2c3ccccc3CCN2C(=O)C2CC(=O)c3ccc(Cl)cc32)CCCC1.[I-] (centres undefined)              TRUE
8  C[N+]1(CC2c3ccccc3CCN2C(=O)C2CC(=O)c3ccc(Cl)cc32)CCCC1 (centres undefined)              TRUE
9  O=C1CC(C(=O)N2CCc3ccccc3C2C[N+]2(CC3CC3)CCCC2)c2cc(Cl)ccc21 (centres undefined)              TRUE
